Below: a set of entries, each annotated with reported IC50.
biological target: BACE1 (Homo sapiens (Human)); assay: In vitro enzymatic BACE1 FRET assay; assay type: biochemical; conditions: read-out: IC50 IP (μM) BACE1 Enzyme
Sequence (P56817 46-501): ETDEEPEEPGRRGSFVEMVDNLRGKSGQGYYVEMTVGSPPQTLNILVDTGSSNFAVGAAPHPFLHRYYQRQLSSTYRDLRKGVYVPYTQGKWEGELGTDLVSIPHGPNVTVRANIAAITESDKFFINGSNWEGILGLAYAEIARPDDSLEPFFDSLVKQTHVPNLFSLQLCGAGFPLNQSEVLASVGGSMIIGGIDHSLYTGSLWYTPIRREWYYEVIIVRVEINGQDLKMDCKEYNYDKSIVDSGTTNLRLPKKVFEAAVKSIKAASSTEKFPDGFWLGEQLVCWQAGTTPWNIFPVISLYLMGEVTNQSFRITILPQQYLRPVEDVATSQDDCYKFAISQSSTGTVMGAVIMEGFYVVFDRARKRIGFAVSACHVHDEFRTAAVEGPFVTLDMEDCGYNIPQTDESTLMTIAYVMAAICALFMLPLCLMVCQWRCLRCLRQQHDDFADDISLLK
Just the number please, in µM, no unit attached.

Solved entries:
>>> reported_result("C[C@]1(c2cc(/C=C(\\F)c3ccc(C#N)cn3)ccc2F)N=C(N)S[C@@]2(C(=O)N3CCO[C@@H]4C[C@@H]43)C[C@H]21 (single isomer, unassigned)")
0.0012
>>> reported_result("C#CCOc1cnc(/C(F)=C/c2cnc(F)c([C@@]3(C)N=C(N)S[C@@]4(C(=O)N5CC[C@@H](F)C5)C[C@H]43)c2)cn1")
0.0008

Let us examine a further case.
Input line: Please give the measured IC50 for this compound: CC#CCOc1cnc(/C(F)=C/c2ccc(F)c([C@@]3(C)N=C(N)S[C@@]4(S(C)(=O)=O)C[C@H]43)c2)cn1
Output line: 0.0002

---

biological target: Cathepsin D (CatD) (Homo sapiens (Human), UniProt P07339); assay: CatD assay; assay type: biochemical; details: read-out: IC50 IP (μM) CatD
Sequence (P07339 65-412, species assumed): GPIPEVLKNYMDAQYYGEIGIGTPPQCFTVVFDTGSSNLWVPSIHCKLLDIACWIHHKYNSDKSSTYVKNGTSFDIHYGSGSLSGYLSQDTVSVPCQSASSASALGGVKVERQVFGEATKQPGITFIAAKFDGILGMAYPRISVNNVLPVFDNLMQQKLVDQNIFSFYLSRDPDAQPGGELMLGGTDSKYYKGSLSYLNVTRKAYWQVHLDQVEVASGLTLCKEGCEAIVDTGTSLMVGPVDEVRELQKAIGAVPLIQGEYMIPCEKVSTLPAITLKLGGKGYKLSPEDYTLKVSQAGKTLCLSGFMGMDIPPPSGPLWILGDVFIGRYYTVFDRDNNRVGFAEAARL
Reported values of IC50 for individual entries
Answer in µM, number only, no unit symbol.

Sample records with IC50:
>>> reported_result("C[C@]1(c2cc(/C=C(\\F)c3ccc(C#N)cn3)ccc2F)N=C(N)S[C@@]2(C(=O)N3CCC(C(F)(F)F)CC3)C[C@H]21 [Example 139]")
81.5
>>> reported_result("C[C@]1(c2cc(/C=C(\\F)c3ccc(C#N)cn3)ccc2F)N=C(N)S[C@@]2(C(=O)N3CCCC3)C[C@H]21 [Example 107]")
396

Proceed to the following item.
Input line: // lookup IC50 for CN(C)C(=O)[C@]12C[C@H]1[C@@](C)(c1cc(/C=C(\F)c3ccc(C#CC4CC4)cn3)ccc1F)N=C(N)S2 [Example 109]
Output line: 138

---

target: Cathepsin D (CatD) (Homo sapiens (Human), UniProt P07339); assay: CatD assay; type: biochemical; conditions: read-out: IC50 IP (μM) CatD
RECORDED_ENDPOINT: IC50

>>> reported_result("C[C@]1(c2cc(/C=C(\\F)c3ccc(C#N)cn3)ccc2F)N=C(N)S[C@]2(CO)[C@H]1C2(F)F")
"360 µM"
>>> reported_result("C#CCOc1cnc(/C(F)=C/c2ccc(F)c([C@@]3(C)N=C(N)S[C@@]4(C(=O)NC)C[C@H]43)c2)cn1")
"135 µM"
>>> reported_result("C[C@@H]1COCCN1C(=O)[C@]12C[C@H]1[C@@](C)(c1cc(/C=C(\\F)c3ccc(C#N)cn3)cnc1F)N=C(N)S2")
"400 µM"

Input line: Name the reported IC50 value associated with the compound COC(=O)[C@H]1CCCN1C(=O)[C@]12C[C@H]1[C@@](C)(c1cc(/C=C(\F)c3ccc(C#N)cn3)ccc1F)N=C(N)S2 [Example 130, bis(2,2,2-trifluoroacetate)]
Output line: 120 µM

Input line: Reported IC50, compound CC(C)[C@@H]1CN(C(=O)[C@]23C[C@H]2[C@@](C)(c2cc(/C=C(\F)c4ccc(C#N)cn4)ccc2F)N=C(N)S3)CCO1 : ____
Output line: 115 µM

Input line: Consider the compound shown here: CC1CCN(C(=O)[C@]23C[C@H]2[C@@](C)(c2cc(/C=C(\F)c4ccc(C#N)cn4)ccc2F)N=C(N)S3)CC1 What is its recorded IC50?
Output line: 93.9 µM

Input line: // query IC50 value for entry CC(C)[C@@H]1COCCN1C(=O)[C@]12C[C@H]1[C@@](C)(c1cc(/C=C(\F)c3ccc(C#N)cn3)ccc1F)N=C(N)S2
Output line: 27.8 µM

Input line: Suppose we examine the compound CNC(=O)[C@]12C[C@H]1[C@@](C)(c1cc(/C=C(\F)c3ccc(C(F)(F)F)cn3)ccc1F)N=C(N)S2 ; what IC50 value has been reported?
Output line: 396 µM

Input line: IC50 for C#CCOc1cnc(/C(F)=C/c2ccc(F)c([C@@]3(C)N=C(N)S[C@]4(CO)[C@H]3C4(F)F)c2)cn1 ?
Output line: 147 µM

Input line: Consider the compound shown here: CNC(=O)[C@]12C[C@H]1[C@@](C)(c1cc(/C=C(\F)c3cnc(C#CCO)cn3)ccc1F)N=C(N)S2 What is its recorded IC50?
Output line: 349 µM

Input line: What does the record list as IC50 for CN(C)C(=O)[C@]12C[C@H]1[C@@](C)(c1cc(/C=C(\F)c3cnc(C#N)cn3)cnc1F)N=C(N)S2 ?
Output line: 290 µM

Input line: Would you mind telling me what IC50 value was observed for C[C@H]1CN(C(=O)[C@]23C[C@H]2[C@@](C)(c2cc(/C=C(\F)c4ccc(C#N)cn4)ccc2F)N=C(N)S3)[C@@H](C)CO1 ?
Output line: 73.9 µM

---

target: BACE2 (Homo sapiens (Human), UniProt Q9Y5Z0); assay: In vitro enzymatic BACE2 FRET assay; format: biochemical; details: read-out: IC50 IP (μM) BACE2 Enzyme
Sequence (Q9Y5Z0 63-518): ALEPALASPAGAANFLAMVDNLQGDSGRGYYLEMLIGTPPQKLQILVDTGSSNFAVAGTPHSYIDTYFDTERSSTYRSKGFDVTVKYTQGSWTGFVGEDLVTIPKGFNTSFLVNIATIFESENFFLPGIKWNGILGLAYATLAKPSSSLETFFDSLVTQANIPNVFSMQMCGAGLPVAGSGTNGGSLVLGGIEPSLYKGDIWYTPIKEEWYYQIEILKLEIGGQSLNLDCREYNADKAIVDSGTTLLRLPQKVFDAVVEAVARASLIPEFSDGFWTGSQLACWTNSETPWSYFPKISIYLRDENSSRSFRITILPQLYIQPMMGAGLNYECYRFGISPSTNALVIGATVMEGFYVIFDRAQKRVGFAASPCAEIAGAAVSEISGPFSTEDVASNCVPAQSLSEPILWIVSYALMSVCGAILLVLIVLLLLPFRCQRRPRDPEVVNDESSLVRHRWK
RECORDED_ENDPOINT: IC50 (µM)
Your answer is read as µM, so omit the unit and give the number.

Example compounds with recorded IC50:
>>> reported_result("CC#C/C(F)=C/c1ccc(F)c([C@@]2(C)N=C(N)S[C@@]3(C(=O)N(C)C)C[C@H]32)c1")
0.01
>>> reported_result("COC(=O)[C@]12C[C@H]1[C@@](C)(c1cc(/C=C(\\F)c3ccc(Cl)cn3)cc(F)c1F)N=C(N)S2")
0.083
>>> reported_result("COC[C@]12C[C@H]1[C@@](C)(c1cc(/C=C(\\F)c3cnc(OCC(F)(F)F)cn3)ccc1F)N=C(N)S2")
1.73
>>> reported_result("C[C@]1(c2cc(/C=C(\\F)c3cnc(Cl)cn3)ccc2F)N=C(N)S[C@@]2(S(C)(=O)=O)C[C@H]21")
0.011
>>> reported_result("C[C@]1(c2cc(/C=C(\\F)c3ccc(C#N)cn3)ccc2F)N=C(N)S[C@@]2(C(=O)N3CC4(CCOCC4)C3)C[C@H]21")
0.039

Input line: Reported IC50, compound C#CCOc1cnc(/C(F)=C/c2cnc(F)c([C@@]3(C)N=C(N)S[C@@]4(C(=O)NCC(F)F)C[C@H]43)c2)cn1 : ____
Output line: 0.411

Input line: What value of IC50 has been recorded for this entry: COC(=O)[C@]12C[C@H]1[C@@](C)(c1cc(/C=C(\F)c3ccc(Br)cn3)ccc1F)N=C(N)S2
Output line: 0.127

Input line: Query: IC50; subject: CC1COC([C@]23C[C@H]2[C@@](C)(c2cc(/C=C(\F)c4ccc(C#N)cn4)ccc2F)N=C(N)S3)=N1 (stereo partly drawn)
Output line: 0.7

Input line: Query (compound): C#CCOc1cnc(/C(F)=C/c2cnc(F)c([C@@]3(C)N=C(N)S[C@@]4(C(=O)N5CC[C@H](F)C5)C[C@H]43)c2)cn1 ; field requested: IC50
Output line: 0.119

Input line: Value lookup for IC50; key = CNC(=O)[C@]12C[C@H]1[C@@](C)(c1cc(/C=C(\F)c3cnc(C#CCF)cn3)ccc1F)N=C(N)S2
Output line: 0.152

Input line: So what does the record say about IC50 for C[C@]1(c2cc(/C=C(\F)c3cnc(C#CC4CC4)cn3)ccc2F)N=C(N)S[C@@]2(C(=O)N3CCOCC3)C[C@H]21 ?
Output line: 0.145

Input line: Returns the measured IC50 for the input compound. Input: Cc1nnc(COc2cnc(/C(F)=C/c3ccc(F)c([C@@]4(C)N=C(N)S[C@@]5(C(=O)N(C)C)C[C@H]54)c3)cn2)o1
Output line: 0.072

Input line: Could you tell me which IC50 is on file for C#CCOc1cnc(/C(F)=C/c2ccc(F)c([C@@]3(C)N=C(N)S[C@@]4(C(=O)NC)C[C@H]43)c2)cn1 ?
Output line: 0.396

Input line: So what does the record say about IC50 for C[C@]1(c2cc(/C=C(\F)c3ccc(Cl)cn3)ccc2F)N=C(N)S[C@@]2(C(=O)Nc3ccccc3)C[C@H]21 ?
Output line: 0.047

Input line: Name the recorded IC50 for C#CCOc1cnc(/C(F)=C/c2ccc(F)c([C@@]3(C)N=C(N)S[C@@]4(COC)C[C@H]43)c2)cn1 .
Output line: 0.694

Input line: Consider the compound C#CCOc1cnc(/C(F)=C/c2cnc(F)c([C@@]3(C)N=C(N)S[C@@]4(C(=O)N(C)C)C[C@H]43)c2)cn1 and give its measured IC50.
Output line: 0.04

Input line: Would you kindly share the measured IC50 for CN(C)C(=O)[C@]12C[C@H]1[C@@](C)(c1cc(/C=C(\F)c3cnc(Br)cn3)ccc1F)N=C(N)S2 ?
Output line: 0.0262

Input line: Need IC50 of C[C@]1(c2cc(/C=C(\F)c3ccc(C#N)cn3)ccc2F)N=C(N)S[C@@]2(C(=O)N3CCC4(CCO4)C3)C[C@H]21 (stereo partly drawn) , thanks.
Output line: 0.028

Input line: Would you mind telling me what IC50 value was observed for COC(=O)[C@]12C[C@H]1[C@@](C)(c1cc(/C=C(\F)c3cnc(OCc4ncco4)cn3)ccc1F)N=C(N)S2 ?
Output line: 2.42

Input line: Would you mind telling me what IC50 value was observed for CNC(=O)[C@]12C[C@H]1[C@@](C)(c1cc(/C=C(\F)c3ccc(Br)cn3)ccc1F)N=C(N)S2 ?
Output line: 0.069

Input line: Consider the compound CN(C)C(=O)[C@]12C[C@H]1[C@@](C)(c1cc(/C=C(\F)c3ccc(C#N)nc3)ccc1F)N=C(N)S2 and give its measured IC50.
Output line: 0.642

Input line: I would be grateful if you could share the reported IC50 for C#CCOc1cnc(/C(F)=C/c2ccc(F)c([C@@]3(C)N=C(N)S[C@@]4(C(=O)NCC(F)F)C[C@H]43)c2)cn1 .
Output line: 0.109

Input line: # IC50 lookup, item C[C@]1(O)CCN(C(=O)[C@]23C[C@H]2[C@@](C)(c2cc(/C=C(\F)c4ccc(C#N)cn4)ccc2F)N=C(N)S3)C1
Output line: 0.007
